assayed.target: Kappa-type opioid receptor (Homo sapiens, UniProt P41145)
Sequence (P41145 whole entry): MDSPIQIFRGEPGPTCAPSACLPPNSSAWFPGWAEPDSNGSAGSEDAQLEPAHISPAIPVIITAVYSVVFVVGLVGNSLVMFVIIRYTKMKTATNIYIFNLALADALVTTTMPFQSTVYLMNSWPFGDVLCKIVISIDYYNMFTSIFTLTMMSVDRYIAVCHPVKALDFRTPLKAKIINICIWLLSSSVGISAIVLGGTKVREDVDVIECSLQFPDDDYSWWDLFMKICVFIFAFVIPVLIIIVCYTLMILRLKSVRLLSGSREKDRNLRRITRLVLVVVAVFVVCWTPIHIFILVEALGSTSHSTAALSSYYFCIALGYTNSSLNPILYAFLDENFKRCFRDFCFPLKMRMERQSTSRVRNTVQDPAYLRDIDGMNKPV
experiment.summary: Stimulatory effect on [35S]GTP gammaS binding to Opioid receptor kappa1 expressed in CHO cells compared to 500 nM U50,488
Format: functional, cell-based
Could you please report measured Emax for the items listed next?
# value in %; strip the unit string

Ask | Which Emax is reported for this molecule? "COC(=O)[C@@H]1C[C@H](OC(=O)c2ccccc2)C(=O)[C@H]2[C@@]1(C)CC[C@H]1C(=O)O[C@H](c3ccoc3)C[C@]21C"
Reply | 140

Ask | GET /values?readout=Emax&item= "COC(=O)[C@@H]1C[C@H](OC(=O)c2cccnc2)C(=O)[C@H]2[C@@]1(C)CC[C@H]1C(=O)O[C@H](c3ccoc3)C[C@]21C"
Reply | 76

Ask | Fill in: Emax of "COC(=O)[C@@H]1C[C@H](OC(=O)C(C)C)C(=O)[C@H]2[C@@]1(C)CC[C@H]1C(=O)O[C@H](c3ccoc3)C[C@]21C" is ___
Reply | 105

Ask | Reported Emax, molecule "COC(=O)[C@@H]1C[C@H](OS(C)(=O)=O)C(=O)[C@H]2[C@@]1(C)CC[C@H]1C(=O)O[C@H](c3ccoc3)C[C@]21C" : ____
Reply | 112

Ask | Report Emax for "CCC(=O)O[C@H]1C[C@@H](C(=O)OC)[C@]2(C)CC[C@H]3C(=O)O[C@H](c4ccoc4)C[C@]3(C)[C@H]2C1=O" please.
Reply | 110

Ask | Tell me the measured Emax of "COC(=O)[C@@H]1C[C@H](OC(=O)Nc2ccccc2)C(=O)[C@H]2[C@@]1(C)CC[C@H]1C(=O)O[C@H](c3ccoc3)C[C@]21C" , please.
Reply | 100

====

assayed.target: Mu-type opioid receptor (Homo sapiens, UniProt P35372)
experiment.summary: Stimulation of [35S]GTP-gamma-S, binding to Opioid receptor mu1 expressed in CHO cells
Assay type: functional, cell-based
measure: EC50 (µM)
The answer is to be given in µM; state only the numeric part.

Ask | Reported EC50, compound "COC(=O)[C@@H]1C[C@H](OC(=O)c2ccccc2)C(=O)[C@H]2[C@@]1(C)CC[C@H]1C(=O)O[C@H](c3ccoc3)C[C@]21C" : ____
Reply | 0.5

====

assayed.target: Opioid receptors; mu & kappa (Homo sapiens) (UniProt P41145+P35372)
Sequence (P35372 whole entry, looked up): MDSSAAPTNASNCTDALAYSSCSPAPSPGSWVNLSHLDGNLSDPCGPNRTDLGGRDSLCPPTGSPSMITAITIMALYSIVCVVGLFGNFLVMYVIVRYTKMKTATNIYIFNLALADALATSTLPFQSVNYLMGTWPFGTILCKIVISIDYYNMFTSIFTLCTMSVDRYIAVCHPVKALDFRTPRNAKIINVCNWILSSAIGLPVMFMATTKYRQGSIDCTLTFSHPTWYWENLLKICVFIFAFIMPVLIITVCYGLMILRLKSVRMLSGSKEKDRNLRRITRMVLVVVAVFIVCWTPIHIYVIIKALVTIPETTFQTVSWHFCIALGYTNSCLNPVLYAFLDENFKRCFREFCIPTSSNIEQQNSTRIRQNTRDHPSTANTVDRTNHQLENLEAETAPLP
Sequence (P41145 whole entry, looked up): as the sequence (P41145 whole entry) above
experiment.summary: Relative affinity for human opioid receptor mu1 and kappa1
Type: protein assay
measure: Selectivity
Give the figure by itself; no unit, no explanation.

Ask | Provide the documented Selectivity with Opioid receptors; mu & kappa (Homo sapiens) (UniProt P41145+P35372) as the system for "C=C(C)C(=O)O[C@H]1C[C@@H](C(=O)OC)[C@]2(C)CC[C@H]3C(=O)O[C@H](c4ccoc4)C[C@]3(C)[C@H]2C1=O"
Reply | 7

Ask | Lab request: please report Selectivity under test system Opioid receptors; mu & kappa (Homo sapiens) (UniProt P41145+P35372) for "COC(=O)[C@@H]1C[C@H](OC(=O)C(C)C)C(=O)[C@H]2[C@@]1(C)CC[C@H]1C(=O)O[C@H](c3ccoc3)C[C@]21C"
Reply | 196

Ask | Identify the measured Selectivity of "C=CCNC(=O)O[C@H]1C[C@@H](C(=O)OC)[C@]2(C)CC[C@H]3C(=O)O[C@H](c4ccoc4)C[C@]3(C)[C@H]2C1=O" for Opioid receptors; mu & kappa (Homo sapiens) (UniProt P41145+P35372).
Reply | 5

====

assayed.target: Delta-type opioid receptor (Homo sapiens)
experiment.summary: Inhibition of [125I]- IOXY binding to human Opioid receptor delta1
measure: Ki (µM)
Reply numerically in µM, unit not repeated.

Ask | Form field: reported Ki of "CCC(=O)O[C@H]1C[C@@H](C(=O)OC)[C@]2(C)CC[C@H]3C(=O)O[C@H](c4ccoc4)C[C@]3(C)[C@H]2C1=O"
Reply | 6.69

Ask | Would you kindly share the measured Ki for COC(=O)[C@@H]1C[C@H](OC(=O)c2ccccc2)C(=O)[C@H]2[C@@]1(C)CC[C@H]1C(=O)O[C@H](c3ccoc3)C[C@]21C [HERKINORIN] ?
Reply | 1.17

Ask | Would you mind telling me what Ki value was observed for "COC(=O)[C@@H]1C[C@H](OC(=O)c2cccnc2)C(=O)[C@H]2[C@@]1(C)CC[C@H]1C(=O)O[C@H](c3ccoc3)C[C@]21C" ?
Reply | 4.82

Ask | Which Ki is listed for "C=CCNC(=O)O[C@H]1C[C@@H](C(=O)OC)[C@]2(C)CC[C@H]3C(=O)O[C@H](c4ccoc4)C[C@]3(C)[C@H]2C1=O" ?
Reply | 6.46

Ask | Form field: reported Ki of "C=C(C)C(=O)O[C@H]1C[C@@H](C(=O)OC)[C@]2(C)CC[C@H]3C(=O)O[C@H](c4ccoc4)C[C@]3(C)[C@H]2C1=O"
Reply | 8.88

====

assayed.target: Opioid receptors; delta & kappa (Homo sapiens) (UniProt P41145+P41143)
Sequence (P41143 whole entry, looked up): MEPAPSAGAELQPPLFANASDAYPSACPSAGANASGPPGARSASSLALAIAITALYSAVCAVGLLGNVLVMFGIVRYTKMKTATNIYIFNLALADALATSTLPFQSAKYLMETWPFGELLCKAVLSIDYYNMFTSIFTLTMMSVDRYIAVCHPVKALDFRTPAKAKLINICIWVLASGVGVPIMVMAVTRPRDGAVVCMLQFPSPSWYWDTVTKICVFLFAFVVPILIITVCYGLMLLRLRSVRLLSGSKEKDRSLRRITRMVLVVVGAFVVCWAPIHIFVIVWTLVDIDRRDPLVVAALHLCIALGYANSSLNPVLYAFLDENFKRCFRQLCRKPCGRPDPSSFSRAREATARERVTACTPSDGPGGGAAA
Sequence (P41145 whole entry, looked up): as the sequence (P41145 whole entry) above
experiment.summary: Relative affinity for human opioid receptor delta1 and kappa1
Type: protein assay
measure: Selectivity
API doc: respond with a numeric literal and nothing else, no unit.

Ask | For the record "COC(=O)[C@@H]1C[C@H](OC(=N)C(Cl)(Cl)Cl)C(=O)[C@H]2[C@@]1(C)CC[C@H]1C(=O)O[C@H](c3ccoc3)C[C@]21C" , what value of Selectivity is listed for Opioid receptors; delta & kappa (Homo sapiens) (UniProt P41145+P41143)?
Reply | 95

Ask | API: value(readout=Selectivity, system=Opioid receptors; delta & kappa (Homo sapiens) (UniProt P41145+P41143)) for record "COC(=O)[C@@H]1C[C@H](OC(=O)c2cccnc2)C(=O)[C@H]2[C@@]1(C)CC[C@H]1C(=O)O[C@H](c3ccoc3)C[C@]21C"
Reply | 3

Ask | So what Selectivity did "C=C(C)C(=O)O[C@H]1C[C@@H](C(=O)OC)[C@]2(C)CC[C@H]3C(=O)O[C@H](c4ccoc4)C[C@]3(C)[C@H]2C1=O" get with Opioid receptors; delta & kappa (Homo sapiens) (UniProt P41145+P41143)?
Reply | 210

====

System: Mu-type opioid receptor (Homo sapiens) | Read-out: Ki

Ask | // query Ki value for entry "COC(=O)[C@@H]1C[C@H](O)[C@H](O)[C@@H]2[C@@]3(C)C[C@@H](c4ccoc4)OC(=O)[C@H]3CC[C@]21C"
Reply | > 10 µM

Ask | Look up Ki: "COC(=O)[C@@H]1C[C@H](OC(=N)C(Cl)(Cl)Cl)C(=O)[C@H]2[C@@]1(C)CC[C@H]1C(=O)O[C@H](c3ccoc3)C[C@]21C"
Reply | > 10 µM

Ask | Look up Ki: "CCC(=O)O[C@H]1C[C@@H](C(=O)OC)[C@]2(C)CC[C@H]3C(=O)O[C@H](c4ccoc4)C[C@]3(C)[C@H]2C1=O"
Reply | > 1 µM
